- study.system: UniProtKB Q96RU2
- method.description: Concentration-response biochemical assay confirming initial hits as inhibitors of ubiquitin-specific protease 28 (AID 1645866)
- experimental.parameters: purified USP28, ubiquitin-rhodamine fluorescence, 30 min
Calls of active or inactive are those of the source.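 Rule for the calls: active = in confirmatory dose-response testing, peak deubiquitinase inhibition of 30% or more; inactive = the rest.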
Respond using exactly one of the listed classes: active, inactive

Check out these entries, answers already filled in.
# compound, class.name
rows = [
    ("O=C(NCc1ccco1)c1ccc2c(c1)N(Cc1cccc(F)c1)C(=O)c1ccccc1S2", "inactive"),
    ("COc1ccc(-c2cc3nc([C@H](C)NC(=O)Cc4ccccc4C)nn3cn2)cc1", "active"),
    ("N#Cc1ccccc1OCc1csc(-c2ccccc2)n1", "active"),
    ("Cn1c(CCN2CCCC2)nc2cc(NC(=O)c3ccccc3)ccc21", "inactive"),
]

What was the test verdict on `CCOc1ccc(NC(=O)COc2cccc3c2CCN(CC)C3=O)cc1` ? active

Hi, do you know how `O=C(NCc1nc(-c2ccc3c(c2)[nH]c(=O)n3C2CCCC2)no1)c1ccccc1` came out in this test? inactive

Test call, this compound: `COc1ccc(NC(=O)COc2cc(CSc3ccccc3)ncc2OC)cc1` inactive

Entry CCCCN1CC(C(=O)Nc2ccc(C(=O)Nc3ccc(F)c(Cl)c3)cc2)CC1=O (stereo unspecified) : call = ? active

----------
- study.system: UniProt Q96RU2
- method.description: Concentration-response biochemical assay confirming initial hits as inhibitors of ubiquitin-specific protease 28 (AID 1645866)
- experimental.parameters: purified USP28, ubiquitin-rhodamine fluorescence, 30 min
Calls of active or inactive are those of the source.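 The calls were made as follows: active = in confirmatory dose-response testing, peak deubiquitinase inhibition of 30% or more; inactive = the rest.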
Could you please pick one outcome from this set? active, inactive

Some solved cases for reference:
# compound, class.name
rows = [
    ("c1ccc(CN2CCN(c3nc4ccccc4n4nnnc34)CC2)cc1", "inactive"),
    ("O=C(NC(Cc1ccccc1)c1nc2ccccc2[nH]1)C1CC1 (stereo not given)", "inactive"),
    ("CCC(C)c1ccc(-c2csc(Cn3c(CN4CCN(C)CC4)nc4ccccc4c3=O)n2)cc1 (stereo not given)", "active"),
    ("COc1ccc2ncc3c(-c4ccc(C)cc4)nn(-c4ccc(F)cc4)c3c2c1", "active"),
    ("COc1ccc(-c2cnnn2-c2ccc(NC(=O)c3c(F)cccc3F)cc2)cc1OC", "inactive"),
]

// outcome(item) with item = `CC(C)(C)c1ccc(C(=O)Nc2ccc(Oc3cccnc3)nc2)cc1` active

State the result this test recorded for `c1ccc(-n2nnc(-c3noc(-c4cccnc4)n3)c2-c2ccncc2)cc1` . active

Returns: the outcome recorded for `CNc1nc2c(c(=O)n1Cc1ccccc1)CN(C(=O)c1ccc(CN)cc1)CC2` in this assay. active

Status in this test for `Cc1cc(=O)c2c(O)oc(O)c3c(O)cc(=O)c1c32` ? active

Dear all, I need the recorded test outcome for `COc1ccc2nc(Nc3nc(-c4cnc(N5CCOCC5)nc4C)cc(=O)[nH]3)nc(C)c2c1` , thank you. inactive

----------
- study.system: Ubiquitin carboxyl-terminal hydrolase 28 (Homo sapiens) (UniProt Q96RU2)
- Sequence (Q96RU2 whole entry, looked up): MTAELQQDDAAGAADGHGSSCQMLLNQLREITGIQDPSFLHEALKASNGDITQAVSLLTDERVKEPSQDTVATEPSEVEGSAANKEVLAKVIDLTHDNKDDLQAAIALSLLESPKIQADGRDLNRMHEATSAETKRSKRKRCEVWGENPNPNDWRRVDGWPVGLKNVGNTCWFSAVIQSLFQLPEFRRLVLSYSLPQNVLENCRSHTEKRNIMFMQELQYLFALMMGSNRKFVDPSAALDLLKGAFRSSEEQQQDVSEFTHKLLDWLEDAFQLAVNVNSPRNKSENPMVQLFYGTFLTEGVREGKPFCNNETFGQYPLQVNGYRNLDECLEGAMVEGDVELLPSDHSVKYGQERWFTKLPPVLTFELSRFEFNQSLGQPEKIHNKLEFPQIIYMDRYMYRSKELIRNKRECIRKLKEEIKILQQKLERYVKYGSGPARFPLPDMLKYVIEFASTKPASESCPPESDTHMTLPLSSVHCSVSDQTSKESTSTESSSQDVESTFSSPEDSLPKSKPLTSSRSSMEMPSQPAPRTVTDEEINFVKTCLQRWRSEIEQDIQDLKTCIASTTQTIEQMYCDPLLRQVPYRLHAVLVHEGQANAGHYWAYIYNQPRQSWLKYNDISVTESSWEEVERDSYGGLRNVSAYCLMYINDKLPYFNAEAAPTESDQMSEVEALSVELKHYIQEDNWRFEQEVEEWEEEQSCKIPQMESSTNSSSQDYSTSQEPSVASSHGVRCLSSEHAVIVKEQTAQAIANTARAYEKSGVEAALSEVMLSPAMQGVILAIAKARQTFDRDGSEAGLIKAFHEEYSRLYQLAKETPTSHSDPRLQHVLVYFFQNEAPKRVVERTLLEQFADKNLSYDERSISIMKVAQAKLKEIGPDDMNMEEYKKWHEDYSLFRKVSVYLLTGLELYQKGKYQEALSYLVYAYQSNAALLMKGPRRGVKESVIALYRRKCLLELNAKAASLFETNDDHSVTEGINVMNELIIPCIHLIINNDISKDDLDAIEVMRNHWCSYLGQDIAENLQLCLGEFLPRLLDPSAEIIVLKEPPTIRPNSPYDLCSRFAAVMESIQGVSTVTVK
- method.description: Concentration-response biochemical assay confirming initial hits as inhibitors of ubiquitin-specific protease 28 (AID 1645866)
- experimental.parameters: purified USP28, ubiquitin-rhodamine fluorescence, 30 min
Activity calls are given as the source filed them.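 Rule for the calls: active = in confirmatory dose-response testing, peak deubiquitinase inhibition of 30% or more; inactive = the rest.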
Can you answer with just one of these options? class 1 = active, class 0 = inactive

Observe how each entry below is paired with its result.
# compound, study.system, class.name
rows = [
    ("CSc1nc(SCC(N)=O)c2c3c(sc2n1)COC(C)(C)C3", "Ubiquitin carboxyl-terminal hydrolase 28 (Homo sapiens) (UniProt Q96RU2)", "class 1"),
    ("N#C/C(=C\\c1ccc(OCc2cccc(C(=O)O)c2)cc1)c1ccc(F)cc1", "Ubiquitin carboxyl-terminal hydrolase 28 (Homo sapiens) (UniProt Q96RU2)", "class 1"),
    ("Cc1nn(-c2ccccc2)c(C)c1C(=O)OCC(=O)Nc1cccc(Br)c1", "Ubiquitin carboxyl-terminal hydrolase 28 (Homo sapiens) (UniProt Q96RU2)", "class 1"),
    ("CCn1c(Cn2cccn2)nc2cc(NC(=O)c3ccc(F)cc3)ccc21", "Ubiquitin carboxyl-terminal hydrolase 28 (Homo sapiens) (UniProt Q96RU2)", "class 1"),
    ("CC1(C(=O)NCc2ccccc2)Cn2c(cc3ccccc32)C(=O)N1Cc1ccccc1 (stereo unspecified)", "Ubiquitin carboxyl-terminal hydrolase 28 (Homo sapiens) (UniProt Q96RU2)", "class 1"),
]

What did the test return for `CCn1cc(NC(=O)CN2CCC3(CC=CCOC3)CC2)c(C)n1` ? class 0

Could you check what this test reported for `COc1ccc(NC(=O)CC(=O)c2ccc([N+](=O)[O-])cc2)cc1S(=O)(=O)Nc1ccc(Cl)cc1` ? class 1

# lookup: test call for COc1cccc2c1C(=O)c1ccc3c(c1C2=O)C(=O)CC(C)(O)C3 (stereo unspecified) class 0

In this assay, the call recorded for `CCCOc1ccc(C(=O)Nc2ccc(S(=O)(=O)Nc3cc(C)nc(C)n3)cc2)cc1` was what? class 1

Lab log entry: `COc1ccc(OC)c(NC(=O)CS(=O)(=O)c2cn(CC(=O)N3CCC(C)CC3)c3ccccc23)c1` — outcome as called in the assay? class 1

----------
- study.system: Ubiquitin carboxyl-terminal hydrolase 28 (Homo sapiens) (UniProt Q96RU2)
- method.description: Concentration-response biochemical assay confirming initial hits as inhibitors of ubiquitin-specific protease 28 (AID 1645866)
- experimental.parameters: purified USP28, ubiquitin-rhodamine fluorescence, 30 min
Calls of active or inactive are those of the source.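 How the source made its calls: active means in confirmatory dose-response testing, peak deubiquitinase inhibition of 30% or more; inactive means the rest.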
Valid outcomes are listed here; reply with one: active, inactive

# molecule, class.name
rows = [
    ("Cc1cccc(N2C(=O)/C(=C\\c3ccc4c(c3)OCCO4)c3ccccc3C2=O)c1", "active"),
]

For Cc1cc2c(cc1C)NC(CC(=O)Nc1ccc(O)cc1)C(=O)N2 (stereo unspecified) , which call appears in the assay record? active

Lab log entry: `CCN1C(=O)COc2ccc(NC(=O)c3ccc(OCc4nonc4C)cc3)cc21` — outcome as called in the assay? active

// param item: `O=C(Cc1noc2ccccc12)NCC(=O)Nc1ccc(Cl)cc1` ; yields the recorded call active

Kindly provide the recorded test outcome for the following molecule: `COc1cccc(CCNC(=O)CCn2c(=O)c(C)nc3cc(C)c(C)cc32)c1` inactive

In this assay, the call recorded for O=C(C1CCCN(S(=O)(=O)N2CCCCCC2)C1)N1CCN(c2ccccc2)CC1 (stereo unspecified) was what? inactive

Can you look up the reported call for `O=C(NCCCN1CCc2ccccc2C1)c1cc2c(s1)CS(=O)(=O)C2` for me? inactive

What classification did `COc1cccc2c1NC(=O)C21CCN(C(=O)Nc2cccc(C)c2)CC1` end up with in this test? active

Called result for O=C(c1ccsc1)N1CCC2(C1)Nc1cccnc1NC2=NC1CCCC1 (stereo unspecified) inactive

Outcome? `Cc1cc(C)c(NC(=O)CSc2nc3nccnc3c(=O)n2Cc2ccccc2Cl)c(C)c1` active

GET /call?item= `COc1cc(C)cc2c1C(=O)c1c(cc(O)c(Cl)c1O)C2=O` returns the recorded outcome of this test. active

----------
- study.system: UniProt:Q96RU2
- method.description: Concentration-response biochemical assay confirming initial hits as inhibitors of ubiquitin-specific protease 28 (AID 1645866)
- experimental.parameters: purified USP28, ubiquitin-rhodamine fluorescence, 30 min
The source made the active and inactive calls.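 Rule for the calls: active = in confirmatory dose-response testing, peak deubiquitinase inhibition of 30% or more; inactive = the rest.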
Write down the outcome that applies. Available outcomes: YES for active, NO for inactive

# compound, class.name
measured = [
    ("COc1cc([C@@H]2c3cc4c(cc3C[C@@H]3COC(=O)[C@H]32)OCO4)cc(OC)c1OC", "YES"),
]

Outcome logged for `O=C(Nc1nc2ccccc2s1)c1ccc2c(c1)C(=O)N(Cc1cccnc1)C2=O` in this assay: YES

Record lookup: outcome of this test for `O=C(CN1C(=O)COc2ccc(Cl)cc21)Nc1cccc2ncccc12` ? NO

Can you look up the reported call for NS(=O)(=O)c1cc(C(=O)OCC(=O)NC2CCCc3ccccc32)ccc1Cl (stereo not given) for me? YES

Outcome logged for CN1CC2CN(C(=O)Nc3cccnc3)CCN2Cc2ccccc21 (stereo not given) in this assay: NO

----------
- study.system: Ubiquitin carboxyl-terminal hydrolase 28 (Homo sapiens)
- method.description: Concentration-response biochemical assay confirming initial hits as inhibitors of ubiquitin-specific protease 28 (AID 1645866)
- experimental.parameters: purified USP28, ubiquitin-rhodamine fluorescence, 30 min
assay.metric: IC50

Please report the recorded IC50 for Cc1cccc(NC(=O)CN2C(=O)CC(c3ccccc3)S(=O)(=O)c3ccccc32)c1C (stereo not given) . 21.6 µM

# lookup: IC50 of `CC(=O)c1cccc(NC(=O)c2ccc(-c3csc(C)n3)cc2)c1` 3.13 µM

----------
- study.system: Ubiquitin carboxyl-terminal hydrolase 28 (Homo sapiens) (UniProt Q96RU2)
- method.description: Concentration-response biochemical assay confirming initial hits as inhibitors of ubiquitin-specific protease 28 (AID 1645866)
- experimental.parameters: purified USP28, ubiquitin-rhodamine fluorescence, 30 min
The source made the active and inactive calls.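 How the source made its calls: active means in confirmatory dose-response testing, peak deubiquitinase inhibition of 30% or more; inactive means the rest.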
// classify into active, inactive

Reference set (5 entries):
# molecule, class.name
records = [
    ("Cc1cc(CSc2ncccc2C(=O)Nc2ccnn2Cc2cccnc2)no1", "inactive"),
    ("O=C(c1ccnn1-c1ccc2ccc(-c3ccncc3)cn12)N1CCCC1", "inactive"),
    ("COc1ccc(NC(=O)C2CCCN(S(=O)(=O)N3CCCCCC3)C2)cc1 (stereo unspecified)", "active"),
    ("COc1cccc(NC(=O)Nc2ccc(NC(C)=O)cc2)c1", "active"),
    ("COc1cc(OC)cc(C(=O)Nc2cnc(-c3ccccc3)nc2)c1", "inactive"),
]

I'd appreciate the recorded outcome for `Fc1cccc(-n2cc(-c3noc(-c4ccc[nH]4)n3)nn2)c1` from this test. active

All values here come from PubChem BioAssay AID1645866.
